TARGET_OR_TEST_SYSTEM: Induced myeloid leukemia cell differentiation protein Mcl-1 (Homo sapiens, UniProt Q07820)
Sequence (Q07820 whole entry): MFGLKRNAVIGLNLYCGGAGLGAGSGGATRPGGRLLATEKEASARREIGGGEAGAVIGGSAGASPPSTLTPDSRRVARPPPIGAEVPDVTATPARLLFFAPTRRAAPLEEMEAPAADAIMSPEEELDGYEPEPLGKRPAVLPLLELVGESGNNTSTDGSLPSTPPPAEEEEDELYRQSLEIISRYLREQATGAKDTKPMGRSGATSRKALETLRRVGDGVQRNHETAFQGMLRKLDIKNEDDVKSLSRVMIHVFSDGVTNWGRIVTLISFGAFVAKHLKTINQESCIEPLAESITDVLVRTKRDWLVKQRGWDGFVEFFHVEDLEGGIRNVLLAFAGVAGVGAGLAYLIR
METHOD_NOTES: Inhibition of Mcl-1 (172-327) (unknown origin) using BIOTIN-AHXGQVGRQLAIIGDDINR-amide peptide by TR-FRET based BAK peptide displacement assay
Give log10 of IC50 for every item shown.
# values: log10(IC50), units µM

Give me measured log10 of IC50, please, for this compound: CCOc1cc(Oc2cccc(C(F)(F)F)c2)cc2c1OCC(=O)N[C@H]1CC[C@H](CC1)CC(=O)N[C@@H](c1ccccc1)C(=O)N[C@H](Cc1ccccc1)C(=O)NCCc1ccc(cc1)OC2
1.08

Report log10 of IC50, nothing else, for this compound: CCOc1cccc2c1OCC(=O)N[C@H]1CC[C@H](CC1)CC(=O)N[C@@H](C(C)C)C(=O)N[C@H](Cc1ccccc1)C(=O)N[C@H](C(=O)NC)Cc1ccc(cc1)OC2
-0.53

Let me know recorded log10 of IC50 for CCOc1cccc2c1OCC(=O)N[C@H]1CC[C@H](CC1)CC(=O)N[C@@H]([C@@H](C)OC)C(=O)N[C@H](Cc1ccccc1)C(=O)NCCc1ccc(cc1)OC2 , thanks.
-0.17

Check the records and state log10 of IC50 for CCOc1cc(Oc2cc(C)cc(C)c2)cc2c1OCC(=O)N[C@H]1CC[C@H](CC1)CC(=O)N[C@@H](c1ccccc1)C(=O)N[C@H](Cc1ccccc1)C(=O)N[C@H](C(=O)O)Cc1ccc(cc1)NC2
0.89

Retrieve log10 of IC50 measured for CCOc1cccc2c1OCC(=O)N[C@H]1CC[C@H](CC1)CC(=O)N[C@@H](Cc1c[nH]c3ccccc13)C(=O)N[C@H](Cc1ccccc1)C(=O)NCCc1ccc(cc1)OC2 and print it.
0.16

Return log10 of IC50 for the following compound: CCOc1cc(Oc2cccc3ccccc23)cc2c1OCC(=O)N[C@H]1CC[C@H](CC1)CC(=O)N[C@@H](c1ccccc1)C(=O)N[C@H](Cc1ccccc1)C(=O)NCCc1ccc(cc1)OC2
1.08

Report measured log10 of IC50; entry is CCOc1cc(Oc2cc(C)cc(C)c2)cc2c1OCC(=O)N[C@H]1CC[C@H](CC1)CC(=O)N[C@@H](c1ccccc1)C(=O)N[C@H](Cc1ccccc1)C(=O)NCCc1ccc(cc1)OC2
0.20

Let me know recorded log10 of IC50 for CCOc1cc(-c2ccc(C(F)(F)F)cc2)cc2c1OCC(=O)N[C@H]1CC[C@H](CC1)CC(=O)N[C@@H](c1ccccc1)C(=O)N[C@H](Cc1ccccc1)C(=O)NCCc1ccc(cc1)OC2 , thanks.
1.59

Provide only the value of recorded log10 of IC50 for CCOc1cc(Oc2cc(C)c(Cl)c(C)c2)cc2c1OCC(=O)N[C@H]1CC[C@H](CC1)CC(=O)N[C@@H](CCS(C)(=O)=O)C(=O)N[C@H](Cc1ccncc1)C(=O)NCCc1ccc(cc1)OC2
0.72

Return reported log10 of IC50. Input compound: CCOc1cc(Oc2cc(C)c(Cl)c(C)c2)cc2c1OCC(=O)N[C@H]1CC[C@H](CC1)CC(=O)N[C@@H]([C@@H](C)OC)C(=O)N[C@H](Cc1ccncc1)C(=O)NCCc1ccc(cc1)OC2
0.97

Using known records, supply log10 of IC50 for CCOc1cccc2c1OCC(=O)N[C@H]1CC[C@H](CC1)CC(=O)N[C@@H](CCSC)C(=O)N[C@H](Cc1ccccc1)C(=O)NCCc1ccc(cc1)OC2
-0.67

Write down log10 of IC50 measured for item CCOc1cccc2c1OCC(=O)N[C@H]1CC[C@H](CC1)CC(=O)N[C@@H](c1ccccc1)C(=O)N(C)[C@H](Cc1ccccc1)C(=O)NCCc1ccc(cc1)OC2
-0.42

Recall and state the measured log10 of IC50 for CCOc1cc(Oc2cc(C)c(Cl)c(C)c2)cc2c1OCC(=O)N[C@H]1CC[C@H](CC1)CC(=O)N[C@@H](CC(C)C)C(=O)N[C@H](Cc1cccnc1)C(=O)N[C@@H](C(=O)O)Cc1ccc(cc1)OC2 .
1.20

Tell me its log10 of IC50 given CCOc1cc(Oc2cc(C)c(Cl)c(C)c2)cc2c1OCC(=O)N[C@H]1CC[C@H](CC1)CC(=O)N[C@@H](c1ccccc1)C(=O)N[C@H](Cc1ccccc1)C(=O)NCCc1ccc(cc1)NC2 as the entry.
0.72
